assay: Acute toxicity test in mice with slow administration (tail vein); format: in vivo; details: both sexes, mouse, in vivo, intravenous, mice, tail vein, administration completed within 10 minutes, 14 days observation; read-out: LD50 (Bliss method)
property_label: LD50 at 14 days

Entry CC(C)OC(=O)C(O)Cc1ccc(O)c(O)c1 (stereo not shown) [IDHP] ; LD50 at 14 days = 2050 mg/kg

###

assay: Acute toxicity test in mice with rapid administration (IV); type: in vivo; settings: both sexes, mouse, in vivo, iv, mice, IV, administration completed within 5 seconds; read-out: LD50 95% confidence interval
property_label: LD50

Entry CC(C)OC(=O)C(O)Cc1ccc(O)c(O)c1 (stereo not shown) [IDHP] ; LD50 = 370 to 486 mg/kg
